Study system: PTP1B (Homo sapiens)
Sequence (P18031 whole entry): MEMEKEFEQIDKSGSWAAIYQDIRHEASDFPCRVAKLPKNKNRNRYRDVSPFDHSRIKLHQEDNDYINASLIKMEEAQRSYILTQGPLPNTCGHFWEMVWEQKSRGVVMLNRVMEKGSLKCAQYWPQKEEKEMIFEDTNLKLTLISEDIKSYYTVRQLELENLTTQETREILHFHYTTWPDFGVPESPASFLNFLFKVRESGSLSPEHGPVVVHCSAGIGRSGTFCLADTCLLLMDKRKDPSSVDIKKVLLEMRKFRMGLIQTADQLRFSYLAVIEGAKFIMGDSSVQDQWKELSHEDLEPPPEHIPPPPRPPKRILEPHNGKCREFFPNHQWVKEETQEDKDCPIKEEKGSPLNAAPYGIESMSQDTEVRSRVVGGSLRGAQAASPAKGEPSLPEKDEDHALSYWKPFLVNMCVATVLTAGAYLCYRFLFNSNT
Test summary: PTP activity assay with pNPP substrate (IC50, Ki, mode of inhibition)
Format: biochemical
Measurement parameters: pNPP 2 mM, pH 7.0, 25° C.; read-out: IC50, nM PTP1B
Where a SMILES comes first, the peptide text is derived from it. [ ]: non-standard residue; d: D form. The star is where a group is joined. NHBn(4-(4-Me-thiazol-5-yl)) = Cc1ncsc1-c1ccc(CN*)cc1; F2Pmp = N[C@@H](Cc1ccc(C(F)(F)P(=O)(O)O)cc1)C(=O)O; Phenylacetyl(4-OH,3-OMe) = COc1cc(CC(=O)*)ccc1O; Benzoyl(3-Br,4-Me) = Cc1ccc(C(=O)*)cc1Br; Hyp = O=C(O)[C@@H]1C[C@@H](O)CN1; dHyp = O=C(O)[C@H]1C[C@H](O)CN1; dTle = CC(C)(C)[C@@H](N)C(=O)O; Tle = CC(C)(C)[C@H](N)C(=O)O; Aoc = NCCCCCCCC(=O)O; Ahx = NCCCCCC(=O)O
Each entry below carries its reported IC50.
Write the numeric value and append its unit.

{"Compound": "COc1cc(CC(=O)N[C@@H](Cc2ccccc2)C(=O)N[C@@H](Cc2ccc(C(F)(F)P(=O)(O)O)cc2)C(=O)N[C@@H](CCCCNC(=O)c2ccc(C)c(Br)c2)C(=O)NCCCCCC(=O)N[C@H](C(=O)N2C[C@H](O)C[C@H]2C(=O)NCc2ccc(-c3scnc3C)cc2)C(C)(C)C)ccc1O [Compound 8] ({Phenylacetyl(4-OH,3-OMe)}-F[F2Pmp]K(Benzoyl(3-Br,4-Me))[Ahx][Tle][Hyp]-{NHBn(4-(4-Me-thiazol-5-yl))})", "Study system": "PTP1B (Homo sapiens)", "IC50": "16.7 nM"}

Attention now shifts to the item below.
Suppose we examine the compound COc1cc(CC(=O)N[C@@H](Cc2ccccc2)C(=O)N[C@@H](Cc2ccc(C(F)(F)P(=O)(O)O)cc2)C(=O)N[C@@H](CCCCNC(=O)c2ccc(C)c(Br)c2)C(=O)NCCCCCCCC(=O)N[C@@H](C(=O)N2C[C@@H](O)C[C@@H]2C(=O)NCc2ccc(-c3scnc3C)cc2)C(C)(C)C)ccc1O [Compound 83] ({Phenylacetyl(4-OH,3-OMe)}-F[F2Pmp]K(Benzoyl(3-Br,4-Me))[Aoc][dTle][dHyp]-{NHBn(4-(4-Me-thiazol-5-yl))}) ; what IC50 value has been reported?
19 nM
